Days to pH Failure for assorted compounds
assay: Accelerated stability test (50° C.) with pH stability test of sucralose sample solution; format: physicochemical; details: 50° C., WHIRLPAK polyethylene bags; failure = pH drop ≧1.0; Example 1, sodium acetate in mother liquor varied
readoutKind: Days to pH Failure (Days)

>  <compound>
OC[C@H]1O[C@H](O[C@]2(CCl)O[C@H](CCl)[C@@H](O)[C@@H]2O)[C@H](O)[C@@H](O)[C@H]1Cl [Sample 6]

>  <unitsText>
Days

>  <recordedResult>
4

$$$$
>  <compound>
OC[C@H]1O[C@H](O[C@]2(CCl)O[C@H](CCl)[C@@H](O)[C@@H]2O)[C@H](O)[C@@H](O)[C@H]1Cl [Sample 20]

>  <unitsText>
Days

>  <recordedResult>
6

$$$$
>  <compound>
OC[C@H]1O[C@H](O[C@]2(CCl)O[C@H](CCl)[C@@H](O)[C@@H]2O)[C@H](O)[C@@H](O)[C@H]1Cl [Sample 26]

>  <unitsText>
Days

>  <recordedResult>
6

$$$$

====

experiment: Accelerated stability test (50° C.) with pH stability test of sucralose sample solution; type: physicochemical; details: 50° C., WHIRLPAK polyethylene bags; failure = pH drop ≧1.0; Example 1, sodium acetate in mother liquor varied

>  <compound>
OC[C@H]1O[C@H](O[C@]2(CCl)O[C@H](CCl)[C@@H](O)[C@@H]2O)[C@H](O)[C@@H](O)[C@H]1Cl [Sample 1]

>  <unitsText>
Days

>  <Days to pH Failure>
6

$$$$
>  <compound>
OC[C@H]1O[C@H](O[C@]2(CCl)O[C@H](CCl)[C@@H](O)[C@@H]2O)[C@H](O)[C@@H](O)[C@H]1Cl [Sample 18]

>  <unitsText>
Days

>  <Days to pH Failure>
6

$$$$
>  <compound>
OC[C@H]1O[C@H](O[C@]2(CCl)O[C@H](CCl)[C@@H](O)[C@@H]2O)[C@H](O)[C@@H](O)[C@H]1Cl [Sample 24]

>  <unitsText>
Days

>  <Days to pH Failure>
5

$$$$
>  <compound>
OC[C@H]1O[C@H](O[C@]2(CCl)O[C@H](CCl)[C@@H](O)[C@@H]2O)[C@H](O)[C@@H](O)[C@H]1Cl [Sample 9]

>  <unitsText>
Days

>  <Days to pH Failure>
7

$$$$
>  <compound>
OC[C@H]1O[C@H](O[C@]2(CCl)O[C@H](CCl)[C@@H](O)[C@@H]2O)[C@H](O)[C@@H](O)[C@H]1Cl [Sample 2]

>  <unitsText>
Days

>  <Days to pH Failure>
6

$$$$
>  <compound>
OC[C@H]1O[C@H](O[C@]2(CCl)O[C@H](CCl)[C@@H](O)[C@@H]2O)[C@H](O)[C@@H](O)[C@H]1Cl [Sample 22]

>  <unitsText>
Days

>  <Days to pH Failure>
6

$$$$
>  <compound>
OC[C@H]1O[C@H](O[C@]2(CCl)O[C@H](CCl)[C@@H](O)[C@@H]2O)[C@H](O)[C@@H](O)[C@H]1Cl [Sample 17]

>  <unitsText>
Days

>  <Days to pH Failure>
6

$$$$
>  <compound>
OC[C@H]1O[C@H](O[C@]2(CCl)O[C@H](CCl)[C@@H](O)[C@@H]2O)[C@H](O)[C@@H](O)[C@H]1Cl [Sample 3]

>  <unitsText>
Days

>  <Days to pH Failure>
6

$$$$
>  <compound>
OC[C@H]1O[C@H](O[C@]2(CCl)O[C@H](CCl)[C@@H](O)[C@@H]2O)[C@H](O)[C@@H](O)[C@H]1Cl [Sample 28]

>  <unitsText>
Days

>  <Days to pH Failure>
6

$$$$
>  <compound>
OC[C@H]1O[C@H](O[C@]2(CCl)O[C@H](CCl)[C@@H](O)[C@@H]2O)[C@H](O)[C@@H](O)[C@H]1Cl [Sample 8]

>  <unitsText>
Days

>  <Days to pH Failure>
5

$$$$
>  <compound>
OC[C@H]1O[C@H](O[C@]2(CCl)O[C@H](CCl)[C@@H](O)[C@@H]2O)[C@H](O)[C@@H](O)[C@H]1Cl [Sample 21]

>  <unitsText>
Days

>  <Days to pH Failure>
6

$$$$
>  <compound>
OC[C@H]1O[C@H](O[C@]2(CCl)O[C@H](CCl)[C@@H](O)[C@@H]2O)[C@H](O)[C@@H](O)[C@H]1Cl [Sample 23]

>  <unitsText>
Days

>  <Days to pH Failure>
5

$$$$
>  <compound>
OC[C@H]1O[C@H](O[C@]2(CCl)O[C@H](CCl)[C@@H](O)[C@@H]2O)[C@H](O)[C@@H](O)[C@H]1Cl [Sample 13]

>  <unitsText>
Days

>  <Days to pH Failure>
5

$$$$
